Give Visual observation value (Average for 4 mice) for every item shown.
Tested on: back skin of hairless mouse (HR-1) applied with oleic acid
Test: Test for Parakeratosis-Inhibiting Effect (oleic acid applied on the back of hairless mouse; rough skin visual score and parakeratosis value)
Assay type: in vivo
Settings: 3 mass % sample after 10 mass % oleic acid, back of hairless mouse, 3 days; rough skin (desquamation and erythema) score, control = 2.0, no roughness = 0.0
No unit in the answer, please; the number alone is enough.

Q) // returns reported Visual observation value (Average for 4 mice) for input CN[C@@H](CCC(=O)O)C(=O)O [N-methyl-L-glutamic acid]
A) 0.8

Q) // returns reported Visual observation value (Average for 4 mice) for input O=C(O)CC[C@H](NC(=O)OCc1ccccc1)C(=O)O [N-benzyloxycarbonyl-L-glutamic acid]
A) 0.9

Q) // returns reported Visual observation value (Average for 4 mice) for input NC(=O)N[C@@H](CCC(=O)O)C(=O)O [N-carbamoyl-L-glutamic acid]
A) 0.7

Q) // returns reported Visual observation value (Average for 4 mice) for input CC(=O)N[C@@H](CCC(N)=O)C(=O)O [N-acetyl-L-glutamine, reference compound]
A) 1.9

Q) // returns reported Visual observation value (Average for 4 mice) for input CNC(CCC(=O)O)C(=O)O (racemic) [N-methyl-DL-glutamic acid]
A) 0.9

Q) // returns reported Visual observation value (Average for 4 mice) for input CC(=O)N[C@@H](CCC(=O)O)C(=O)O [N-acetyl-L-glutamic acid, reference compound]
A) 1.2
